System: Cytochrome P450
EXPERIMENT DESCRIPTION: Stability in human liver microsomes assessed as CYP450-mediated metabolism by measuring parent compound remaining at 1 uM measured after 60 mins in presence of NADPH generating system by LC-MS/MS analysis
Assay type: ADME
EXPERIMENTAL CONTEXT: 1 h
METRIC NAME: Stability (%)
Give the quantity in %, number only.

# annotated cases, reported Stability shown
Input `CSc1ccc(-c2c(C)nc3c(N4CC[C@@H](NC(C)=O)C4)cc(C)nn23)cc1` . Output Stability: 84

Stability for `COc1ccc(-c2cnc3c(N4CC[C@@H](NC(C)=O)C4)ccnn23)cc1OC` is 92

Next:
Please fill in: Stability reported for `COc1ccc(-c2c(C)nc3c(N4CC[C@@H](NS(=O)(=O)C5CC5)C4)cc(C)nn23)cc1OC` = 111
